# Tested on: SNB-75 CNS
# PROCEDURE_SUMMARY: NCI-60 one-dose screen, 48 h
# EXPERIMENTAL_PARAMETERS: 10 µM unless noted
# Description: Growth inhibition of the SNB-75 human tumor cell line is measured as a screen for anti-cancer activity. Cells are grown in 96 well plates and exposed to the test compound for 48 hours. Compounds are tested at a single concentration, which is 10^-5 M for most compounds. The reported endpoint is percent growth (GI% or GIPRCNT), where numbers from 0 - 100% represent growth inhibition, and numbers from -100% - 0 represent cell death. For example, a value of 40 represents 60% growth inhibition. […]
About 83,000 compounds went through this panel and 20% of them were active in at least one assay; those are over-represented in the sample as a whole. Activity calls are given as the source filed them. Rule for the calls: active = growth percent below 10; inactive = the rest.
Pick one and only one: label 1 (active), label 0 (inactive)

// return assay outcome for O=C(O)c1ccc(OCc2ccccc2)cc1
label 0

// return assay outcome for CCCCCCCCCCCCCCCCOc1ccccc1NC(=O)CC(C)=O
label 0

// return assay outcome for OC(CCN1CCCCC1)(c1ccccc1)c1ccccc1
label 0

// return assay outcome for COCC(N)=O
label 0

// return assay outcome for Cc1ccc(S(N)(=O)=O)cc1Cl
label 0

// return assay outcome for O=C(Oc1ccccc1Cl)c1ccc(Cl)cc1Cl
label 0

// return assay outcome for CCCCCCCCNC(=O)C(C)C
label 0

// return assay outcome for OCCOc1ccc(-c2cc(-c3ccccn3)nc(-c3ccccn3)c2)cc1
label 0

// return assay outcome for OC(CBr)CCBr (stereo not drawn)
label 0

// return assay outcome for CC(C)NC(=O)OCc1c(COC(=O)NC(C)C)c(-c2ccc(Cl)cc2)n2c1CCC2
label 0

// return assay outcome for CCCCCCCCCCCCCC/C=C\C(CC(=O)O)C(=O)O (stereo not drawn)
label 0

// return assay outcome for CC(=O)OCC1OC(n2cnc3c(=S)nc(N)[nH]c32)C(OC(C)=O)C1OC(C)=O (stereo not drawn)
label 0

// return assay outcome for CNc1ccccc1C(=O)N/N=C/C=C/c1ccccc1
label 1

----------
# Tested on: SK-MEL-28 melanoma
# PROCEDURE_SUMMARY: NCI-60 one-dose screen, 48 h
# EXPERIMENTAL_PARAMETERS: 10 µM unless noted
The panel holds about 83,000 compounds, 20% with a hit somewhere; the sample as a whole holds those more often. Active and inactive are the calls of the source. How the source made its calls: active means growth percent below 10; inactive means the rest.
Pick one and only one: active, inactive

// return assay outcome for CCOC(=O)C(C#N)=C1CCN(C)CC1
inactive

// return assay outcome for CC(=O)/C(C)=N\OC(=O)Nc1ccccc1
inactive

// return assay outcome for Cc1cc2c3ccc(C)[n+](C)c3ccc2n1C
inactive

// return assay outcome for O=S(Cc1ccccc1)/C(=C/NC(=S)Nc1cc(Cl)ccc1Cl)c1ccccc1 (centres undefined)
inactive

// return assay outcome for CC(=O)c1cccc(O)c1
inactive

// return assay outcome for COc1ccc(Br)c2c1C(=O)CC2
inactive

// return assay outcome for C=C1CC2(OC1=O)C(=O)N(C)c1ccc(I)cc12 (centres undefined)
active

// return assay outcome for O=C(O)CSCC(=O)Nc1cc(C(F)(F)F)ccc1Cl
inactive

// return assay outcome for Cc1cc(CO)c(O)c(CO)c1
inactive

// return assay outcome for O=C1NC(=O)C(c2ccccc2)O1 (centres undefined)
inactive

// return assay outcome for CCCC(OC(C)=O)c1ccc2c(c1)OCO2 (centres undefined)
inactive

// return assay outcome for O=Cc1ccc(O)c(O)c1
inactive

// return assay outcome for CCN(C(=O)Nc1ccccc1Cl)c1ccccc1
inactive

// return assay outcome for O=C1C=C[C@H](O)[C@@]2(CO)O[C@@H]12
inactive
